These molecules were tested on Staph. aureus Smith; MIC is the recorded read-out.
Experimental readout: MIC

molecule=CC[C@@]1(O)C[C@H](O[C@H]2C[C@H](N(C)C)[C@H](O[C@H]3C[C@H](O)[C@H](O[C@H]4C[C@H](O)[C@H](O)[C@H](C)O4)[C@H](C)O3)[C@H](C)O2)c2c(cc3c(c2O)C(=O)c2c(O)cccc2C3=O)[C@H]1C(=O)OC result="3.1 µg/mL"
molecule=CC[C@@]1(O)C[C@H](O[C@H]2C[C@H](N(C)C)[C@H](O[C@H]3C[C@H](O)[C@H](O)[C@H](C)O3)[C@H](C)O2)c2c(cc3c(c2O)C(=O)c2c(O)ccc(O)c2C3=O)[C@H]1C(=O)OC result="0.78 µg/mL"
molecule="CC[C@@]1(O)C[C@H](O[C@H]2C[C@H](N(C)C)[C@H](O[C@H]3C[C@H](O)[C@H](OC4CCC(=O)C(C)O4)[C@H](C)O3)[C@H](C)O2)c2c(cc3c(c2O)C(=O)c2c(O)ccc(O)c2C3=O)[C@H]1C(=O)OC (some centres unmarked)" result="1.56 µg/mL"
molecule=CC[C@@]1(O)C[C@H](O[C@H]2C[C@H](N(C)C)[C@H](O[C@H]3C[C@H](O)[C@H](O[C@H]4C[C@H](O)[C@H](O)[C@H](C)O4)[C@H](C)O3)[C@H](C)O2)c2c(cc3c(c2O)C(=O)c2c(O)ccc(O)c2C3=O)[C@H]1C(=O)OC result="0.78 µg/mL"
molecule=CC[C@@]1(O)C[C@H](O[C@H]2C[C@H](N(C)C)[C@H](O[C@H]3C[C@H](O)[C@H](O)[C@H](C)O3)[C@H](C)O2)c2c(cc3c(c2O)C(=O)c2c(O)cccc2C3=O)[C@H]1C(=O)OC result="3.1 µg/mL"
